Listed compounds paired with reported combination Emax
Test system: 647-V (Bladder Carcinoma)
procedure_text: combination Emax (second highest fraction inhibited in the dose matrix, 72 h); higher = more inhibition; extreme values may be limits of the assay
quantity_name: combination Emax

* CCN(CCO)CCCOc1ccc2c(Nc3cc(CC(=O)Nc4cccc(F)c4)[nH]n3)ncnc2c1 [AZD2811] + C=CCn1c(=O)c2cnc(Nc3ccc(N4CCN(C)CC4)cc3)nc2n1-c1cccc(C(C)(C)O)n1 [AZD1775] (first compound max 1 µM, partner max 1 µM) | 0.491
* COc1cccc(OCCCN)c1-c1cc(Nc2cnc(C#N)cn2)n[nH]1 [Prexasertib] + Cc1cc2ncnn2cc1Nc1ncc2c(n1)n(C1CCOCC1)c(=O)n2C [AZD7648] (first compound max 1 µM, 7x7, partner max 10 µM) | 0.757
* Cn1cnc2c(F)c(Nc3ccc(Br)cc3Cl)c(C(=O)NOCCO)cc21 [Selumetinib] + CC(C)n1c(=O)n(C)c2cnc3cc(F)c(-c4ccc(OCCCN5CCCCC5)nc4)cc3c21 [AZD1390] (first compound max 10 µM, 7x7, partner max 0.3 µM) | 0.154
* CC1(C)CCC(CN2CCN(c3ccc(C(=O)NS(=O)(=O)c4ccc(NCC5CCOCC5)c([N+](=O)[O-])c4)c(Oc4cnc5[nH]ccc5c4)c3)CC2)=C(c2ccc(Cl)cc2)C1 [Venetoclax] + C=CCn1c(=O)c2cnc(Nc3ccc(N4CCN(C)CC4)cc3)nc2n1-c1cccc(C(C)(C)O)n1 [AZD1775] (first compound max 1 µM, partner max 1 µM) | 0.612
* CC(=O)Nc1cccc(-n2c(=O)n(C3CC3)c(=O)c3c(Nc4ccc(I)cc4F)n(C)c(=O)c(C)c32)c1 [Trametinib] + Cc1nc(-c2cn3c(n2)-c2ccc(-c4cnn(C(C)(C)C(N)=O)c4)cc2OCC3)n(C(C)C)n1 [Taselisib] (first compound max 1 µM, 7x7, partner max 10 µM) | 0.456
* C=CCn1c(=O)c2cnc(Nc3ccc(N4CCN(C)CC4)cc3)nc2n1-c1cccc(C(C)(C)O)n1 [AZD1775] + C1CN(CCC1(C(=O)N[C@@H](CCO)C2=CC=C(C=C2)Cl)N)C3=NC=NC4=C3C=CN4 [Capivasertib] (first compound max 3 µM, partner max 3 µM) | 0.948
* NC1(C(=O)N[C@@H](CCO)c2ccc(Cl)cc2)CCN(c2ncnc3[nH]ccc23)CC1 [Capivasertib] + Cn1cnc2c(F)c(Nc3ccc(Br)cc3Cl)c(C(=O)NOCCO)cc21 [Selumetinib] (first compound max 10 µM, 7x7, partner max 10 µM) | 0.3

###

Tested on: KG-1 (Acute Myeloid Leukemia)
procedure_text: combination Emax (second highest fraction inhibited in the dose matrix, 72 h); higher = more inhibition; extreme values may be limits of the assay
Kind request: treat 0.7 as inclusive, so combination Emax at 0.7 or higher is 1.0, anything lower is 0.0.

- NC1(C(=O)N[C@@H](CCO)c2ccc(Cl)cc2)CCN(c2ncnc3[nH]ccc23)CC1 [Capivasertib] + CCN(CCO)CCCOc1ccc2c(Nc3cc(CC(=O)Nc4cccc(F)c4)[nH]n3)ncnc2c1 [AZD2811] (first compound max 10 µM, 7x7, partner max 1 µM): 0.0
- C[C@@H]1COCCN1c1cc(C2([S@](C)(=N)=O)CC2)nc(-c2ccnc3[nH]ccc23)n1 [AZD6738] + O=C(c1cc(Cc2n[nH]c(=O)c3ccccc23)ccc1F)N1CCN(C(=O)C2CC2)CC1 [Olaparib] (first compound max 10 µM, 7x7, partner max 10 µM): 1.0
- Cn1cnc2c(F)c(Nc3ccc(Br)cc3Cl)c(C(=O)NOCCO)cc21 [Selumetinib] + C[C@@H]1COCCN1C2=NC(=NC(=C2)C3(CC3)[S@](=N)(=O)C)C4=C5C=CNC5=NC=C4 [AZD6738] (first compound max 10 µM, 7x7, partner max 10 µM): 1.0
- CN(CCO)CC[C@H](CSc1ccccc1)Nc1ccc(S(=O)(=O)NC(=O)c2ccc(N3CCC([C@@H](O)c4ccccc4-c4ccc(Cl)cc4)CC3)cc2)cc1S(=O)(=O)C(F)(F)F [AZD4320] + CCN(CCO)CCCOc1ccc2c(Nc3cc(CC(=O)Nc4cccc(F)c4)[nH]n3)ncnc2c1 [AZD2811] (first compound max 1 µM, 7x7, partner max 1 µM): 1.0
- CN(C)CCCOc1ccc(-c2ccc3ncc4c(c3c2)n(C2CCOCC2)c(=O)n4C)cn1 [AZD0156] + CCN(CCO)CCCOc1ccc2c(Nc3cc(CC(=O)Nc4cccc(F)c4)[nH]n3)ncnc2c1 [AZD2811] (first compound max 1 µM, 7x7, partner max 1 µM): 0.0

###

Test system: D-392MG (Glioblastoma)
procedure_text: Bliss excess, mean over the matrix (fraction); higher = more synergy
quantity_name: Bliss excess

• Cc1c2c(nn1C)CSCc1cc(n(C)n1)CSc1cc(c3ccccc3c1)OCCCc1c(C(=O)O)n(C)c3c-2c(Cl)ccc13 [AZD5991] + CCN(CCO)CCCOc1ccc2c(Nc3cc(CC(=O)Nc4cccc(F)c4)[nH]n3)ncnc2c1 [AZD2811] (first compound max 1 µM, 7x7, partner max 1 µM) = 0.0121
• O=C(c1cc(Cc2n[nH]c(=O)c3ccccc23)ccc1F)N1CCN(C(=O)C2CC2)CC1 [Olaparib] + CC1(C)CCC(CN2CCN(c3ccc(C(=O)NS(=O)(=O)c4ccc(NCC5CCOCC5)c([N+](=O)[O-])c4)c(Oc4cnc5[nH]ccc5c4)c3)CC2)=C(c2ccc(Cl)cc2)C1 [Venetoclax] (first compound max 10 µM, 7x7, partner max 1 µM) = -0.0886
• N#Cc1cnc(Nc2cc(NC[C@H]3CNCCO3)c(C(F)(F)F)cn2)cn1 [SRA737] + O=c1[nH]cc(F)c(=O)[nH]1 [5-Fluorouracil] (first compound max 10 µM, 7x7, partner max 20 µM) = -0.0369
• CCc1c2c(nc3ccc(O)cc13)-c1cc3c(c(=O)n1C2)COC(=O)[C@]3(O)CC [SN-38] + CN(C)CCCOc1ccc(-c2ccc3ncc4c(c3c2)n(C2CCOCC2)c(=O)n4C)cn1 [AZD0156] (first compound max 0.3 µM, 7x7, partner max 1 µM) = 0.0957
• Cc1c2c(nn1C)CSCc1cc(n(C)n1)CSc1cc(c3ccccc3c1)OCCCc1c(C(=O)O)n(C)c3c-2c(Cl)ccc13 [AZD5991] + CC1(C)CCC(CN2CCN(c3ccc(C(=O)NS(=O)(=O)c4ccc(NCC5CCOCC5)c([N+](=O)[O-])c4)c(Oc4cnc5[nH]ccc5c4)c3)CC2)=C(c2ccc(Cl)cc2)C1 [Venetoclax] (first compound max 1 µM, 7x7, partner max 1 µM) = 0.0314
• Cc1c2c(nn1C)CSCc1cc(n(C)n1)CSc1cc(c3ccccc3c1)OCCCc1c(C(=O)O)n(C)c3c-2c(Cl)ccc13 [AZD5991] + C1CN(CCC1(C(=O)N[C@@H](CCO)C2=CC=C(C=C2)Cl)N)C3=NC=NC4=C3C=CN4 [Capivasertib] (first compound max 1 µM, 7x7, partner max 3 µM) = 0.0557
• CCN(CCO)CCCOc1ccc2c(Nc3cc(CC(=O)Nc4cccc(F)c4)[nH]n3)ncnc2c1 [AZD2811] + C=CCn1c(=O)c2cnc(Nc3ccc(N4CCN(C)CC4)cc3)nc2n1-c1cccc(C(C)(C)O)n1 [AZD1775] (first compound max 1 µM, partner max 1 µM) = -0.0945

###

System: NOMO-1 (Acute Myeloid Leukemia)
procedure_text: Bliss excess, mean over the matrix (fraction); higher = more synergy
Listed compounds paired with reported Bliss excess
quantity_name: Bliss excess

* CCN(CCO)CCCOc1ccc2c(Nc3cc(CC(=O)Nc4cccc(F)c4)[nH]n3)ncnc2c1 [AZD2811] + C=CCn1c(=O)c2cnc(Nc3ccc(N4CCN(C)CC4)cc3)nc2n1-c1cccc(C(C)(C)O)n1 [AZD1775] (first compound max 1 µM, partner max 1 µM) | 0.0412
* CC(=O)Nc1cccc(-n2c(=O)n(C3CC3)c(=O)c3c(Nc4ccc(I)cc4F)n(C)c(=O)c(C)c32)c1 [Trametinib] + Cc1nc(-c2cn3c(n2)-c2ccc(-c4cnn(C(C)(C)C(N)=O)c4)cc2OCC3)n(C(C)C)n1 [Taselisib] (first compound max 1 µM, 7x7, partner max 10 µM) | 0.0306
* CC(=O)c1c(C)c2cnc(Nc3ccc(N4CCNCC4)cn3)nc2n(C2CCCC2)c1=O [Palbociclib] + CC1(C)CCC(CN2CCN(c3ccc(C(=O)NS(=O)(=O)c4ccc(NCC5CCOCC5)c([N+](=O)[O-])c4)c(Oc4cnc5[nH]ccc5c4)c3)CC2)=C(c2ccc(Cl)cc2)C1 [Venetoclax] (first compound max 10 µM, 7x7, partner max 1 µM) | -0.0032

###

System: P31-FUJ (Acute Myeloid Leukemia)
procedure_text: Bliss excess, mean over the matrix (fraction); higher = more synergy
quantity_name: Bliss excess

* Cc1c2c(nn1C)CSCc1cc(n(C)n1)CSc1cc(c3ccccc3c1)OCCCc1c(C(=O)O)n(C)c3c-2c(Cl)ccc13 [AZD5991] + CCN(CCO)CCCOc1ccc2c(Nc3cc(CC(=O)Nc4cccc(F)c4)[nH]n3)ncnc2c1 [AZD2811] (first compound max 1 µM, 7x7, partner max 1 µM) | -0.0193
* CN(C)CCCOc1ccc(-c2ccc3ncc4c(c3c2)n(C2CCOCC2)c(=O)n4C)cn1 [AZD0156] + O=C(c1cc(Cc2n[nH]c(=O)c3ccccc23)ccc1F)N1CCN(C(=O)C2CC2)CC1 [Olaparib] (first compound max 3 µM, partner max 3 µM) | 0.0759
